# system: β 1,4-galactosyltransferase
# assay_comment: Inhibition study of β-1,4-galactosyltransferase (UDP-[3H]Gal transfer to N-acetylglucosamine)
# test_parameters: competitive inhibition; UDP-Gal, GlcNAc, Mn2+ 10 mM, HEPES 100 mM pH 7.4, 25° C.
recorded_endpoint: Ki (µM)
Numbers only, in µM.

Given O=c1ccn([C@@H]2O[C@H](COP(=O)(O)OP(=O)(O)O[C@H]3O[C@H](CO)[C@H](O)[C@H](O)[C@H]3F)[C@@H](O)[C@H]2O)c(=O)[nH]1 [Compound 1] , state its recorded Ki.
41
